Compiled from multiple publications: pIC50 readings for Matrix metalloproteinase-14 (Homo sapiens, UniProt P50281).
Units for pIC50: none; it is -log10 of a concentration expressed in mol/L.

Reference set (3 entries):
• O=C(O)[C@H]1[C@H](Cn2nnc3ccccc3c2=O)CC[C@@H]1C(=O)c1ccc(OCc2ccc(Cl)c(Cl)c2)cc1 (racemic) = 6.15
• Cc1cc(Cl)cc(COc2ccc(S(=O)(=O)CC(CC3CCC(=NO)CC3)N(O)C=O)cc2)c1 (stereo not shown) = 4.60
• CCCOc1ccc2cc(C(=O)CC(CCn3nnc4ccccc4c3=O)C(=O)O)oc2c1 (racemic) = 5.66

Log: Matrix metalloproteinase-14 (Homo sapiens, UniProt P50281), molecule Cc1cc(COc2ccc(S(=O)(=O)CC(C=C3CCN(Cc4ccccc4)CC3)N(O)C=O)cc2)c2ccccc2n1 (stereo not shown) , pIC50 = 5.05

Observed pIC50, Matrix metalloproteinase-14 (Homo sapiens, UniProt P50281), O=C(CC(CCn1nnc2ccccc2c1=O)C(=O)O)c1cc2cc(OCc3ccccc3)ccc2o1 (single isomer, unassigned; (+)) : 4.51

Kindly note: Matrix metalloproteinase-14 (Homo sapiens, UniProt P50281), O=C(CC(CCn1nnc2ccccc2c1=O)C(=O)O)c1noc2cc(OCc3cccnc3)ccc12 (racemic) , pIC50 value reported: 5.07

Entry Cc1ccc2nnn(C[C@@H]3CC[C@H](C(=O)c4ccc(OCc5ccccc5)cc4)[C@H]3C(=O)O)c(=O)c2c1 (racemic) ; assay system Matrix metalloproteinase-14 (Homo sapiens, UniProt P50281); pIC50 recorded at 7.17

----------
Across several studies, molecules have been characterized by their pIC50 on Matrix metalloproteinase-14 (Homo sapiens); a selection follows.
pIC50: −log10 of the molar value.
Quick rule for you: pIC50 at 5 or higher means 1 (yes), lower means 0 (no).

Say whether O=C(O)[C@H]1[C@H](Cn2nnc3ccc(C(F)(F)F)cc3c2=O)CC[C@@H]1C(=O)c1cc2cc(OCCc3ccccc3)ccc2o1 (racemic) shows pIC50 of 5 or more.
1 (yes)

Test whether the molecule Cc1ccccc1C(CS(=O)(=O)c1ccc(OCc2ccc3ccccc3n2)cc1)N(O)C=O (centres unmarked) records pIC50 of 5 or higher.
0 (no)

Evaluate CCC(CC)C(=O)N1CCC(C(CS(=O)(=O)c2ccc(OCc3cc(C)nc4ccccc34)cc2)N(O)C=O)CC1 (centres unmarked) : pIC50 at minimum 5?
0 (no)

Would you say O=C(O)[C@@H]1[C@@H](Cn2nnc3ccc(C(F)(F)F)cc3c2=O)CC[C@H]1C(=O)c1ccc(OCc2cccc(Cl)c2)cc1 (single isomer, unassigned) shows pIC50 at minimum 5?
1 (yes)

pIC50 >= 5 for O=C(C[C@H](CCn1nnc2ccccc2c1=O)C(=O)O)c1noc2cc(OCC3CCOCC3)ccc12 (single isomer, unassigned; enantiomer 2) ?
1 (yes)

Does pIC50 meet or surpass 5 for O=C(CC(CCn1nnc2ccc(C(F)(F)F)cc2c1=O)C(=O)O)c1noc2cc(OCc3ccccc3)ccc12 (racemic) ?
0 (no)

----------
# literature pull: Matrix metalloproteinase-14 (Homo sapiens) IC50

* O=C(CC(CCn1nnc2ccccc2c1=O)C(=O)O)c1coc2cc(OCC3CCCCC3)ccc12 (single isomer, unassigned; (+)) | 2500 nM

GET /values?item= O=C(O)[C@@H]1[C@@H](Cn2nnc3ccc(C(F)(F)F)cc3c2=O)CC[C@H]1C(=O)c1ccc(OCc2cccc(C(F)(F)F)c2)cc1 (single isomer, unassigned) &system= Matrix metalloproteinase-14 (Homo sapiens) returns IC50: 3000 nM

Simply: O=C(O)[C@@H]1[C@@H](Cn2nnc3ccc(C(F)(F)F)cc3c2=O)CC[C@H]1C(=O)c1ccc(SCc2ccc(Cl)c(Cl)c2)cc1 (single isomer, unassigned) , Matrix metalloproteinase-14 (Homo sapiens), IC50 = 2600 nM

Form: item COc1cc(C2CCN(C(=O)[C@@H](C)C[C@@]3(C)NC(=O)NC3=O)CC2)cc(F)c1Cl ; test system Matrix metalloproteinase-14 (Homo sapiens); IC50: > 100 nM

Value (IC50, Matrix metalloproteinase-14 (Homo sapiens)) for record COCOC1CCC(C)(C(CS(=O)(=O)c2ccc(OCc3cc(C)nc4ccccc34)cc2)N(O)C=O)CC1 (stereo not drawn) = 50000 nM

Entry COCc1cc(COc2ccc(S(=O)(=O)CC(C=C3CCC(=NO)CC3)N(O)C=O)cc2)cc(C)n1 (stereo not drawn) ; assay system Matrix metalloproteinase-14 (Homo sapiens); IC50 recorded at > 100000 nM
